assay: soluble on expression in E. coli; label from the status in PepcDB or PDB records
Readout Name: soluble on expression in E. coli

Take a look at these entries with their results.
- Seq Text: "MAHHHHHHMIRINENSKMSSNLSNENEVTYEKNNNIKNKLEEKYKNFLKLKNMNSHMGASQNMNVNNNYTMNELEEFEKINNNYNNNNNNINNNINNYYDYMNIKVSQSVQHNKRLQDFYNNKNSFQHYIKKLKTCRFDADDIRNLLEKRLAYERDNTLIKNIQEEENKKGIGINGNFGSESNSSSSNYDNNYLLYRKINRLNKTNTNKSKNRSRKRKRINSKIDKKYIIKCRACKFINPNGFKIEDYYTCQNCGYNDFSVIRSTSPNNAD"
  soluble on expression in E. coli: "not soluble"
- Seq Text: "GAQNEKNMYSYKKIGNKYIVSINNHTEIVKALNAFCKEKGILSGSINGIGAIGELTLRFFNPKTKAYDDKTFREQMEISNLTGNISSMNEQVYLHLHITVGRSDYSALAGHLLSAIQNGAGEFVVEDYSERISRTYNPDLGLNIYDFER"
  soluble on expression in E. coli: "soluble"
- Seq Text: "MRGRQKIAIVGAGLGGAAAATLLQQAGFDVEVFEQAPAFTRLGAGIHIGPNVMKIFRRMGLEQKLELMGSHPDFWFSRDGNTGDYLSRIPLGEFARREYGAAYITIHRGDLHALQIEAIQPGTVHFGKRLEKIVDEGDQVRLDFADGTHTVADIVIGADGIHSKIREELLGAEAPIYSGWVAHRALIRGVNLAQHADVFEPCVKWWSEDRHMMVYYTTGKRDEYYFVTGVPHEAWDFQGAFVDSSQEEMRAAFEGYHPTVQKLIDATESITKWPLRNRNPLPLWSRGRLVLLGDACHPMKPHMAQGACMAIEDAAMLTRCLQETGLSDHRTAFALYEANRKERASQVQSVSNANTWLYSQEDPAWVYGYDLYGQQLESGEAALEHHHHHH"
  soluble on expression in E. coli: "soluble"
- Seq Text: "MDVEAFYKISYGLYIVTSESNGRKCGQIANTVFQLTSKPVQIAVCLNKENDTHNAVKESGAFGVSVLELETPMEFIGRFGFRKSSEFEKFDGVEYKTGKTGVPLVTQHAVAVIEAKVVKECDVGTHTLFVGEAVDAEVLKDAEVLTYADYHLMKKGKTPRTATVYFESK"
  soluble on expression in E. coli: "soluble"

Data request: Any idea what soluble on expression in E. coli was measured for GPGSMSVTIYGIKNCDTMKKARIWLEDHGIDYTFHDYKKEGLDAETLDRFLKTVPWEQLLNRAGTTFRKLPEDVRSNVDAASARELMLAQPSMVKRPVLERDGKLMVGFKPAQYEAYFKL ?
Data returned: soluble

Data request: Any idea what soluble on expression in E. coli was measured for APEWTEEDLSQLTRSMVKFPGGTPGRWEKIAHELGRSVTDVTTKAKQLKDSVTCSPGMV ?
Data returned: soluble

Data request: Any idea what soluble on expression in E. coli was measured for MKTKDQIDNIVKETYRHIDFSGVILVKEKKGIVYEEVFGYANRNECINNTLQTRFGIASGCKIFTAIGICQLVENGVITFQTKLKECLSVNFPNFNEDITIHHLLTHSSGIPDYFDESIMDNFEDLWKQTPMYLLKSLKDFLPLFQNRDMMYAPGSKFHYNNAGFIILGLIIEEQTGLTFTEYIEKNIFNPIGMNHSGYFSLDRLPRQTALGYIKDEISQTWRTNAYSIPIKGGSDGGAFITASDMLKFWEALFNYEIISQEYTKILLTPHIQVNNNQSYGYGIWIETRENKIFKYHVMGYDPGVSFRSAVYPDLGITLVIPSNKGAGAEKLMIEIEGSF ?
Data returned: not soluble
